- Assay Notes: chemical genetic growth profiling, strain panel (AID 1159580);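 note: tested at 20 µM; growth read once vehicle control cultures reached saturation at 30 °C; 1 = growth at the plate median or of vehicle wells; lower values mean less growth of the strain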
- Condition Parameters: S. cerevisiae deletion strains, growth OD, locus YHR027C, strain rpn1, stronger effect = lower value
Among all 5,500 compounds or so, about 2,000 (36%) were called active. About 18% were inconclusive and are not listed. The list shows a part of the results.
Readings of normalized growth for the listed compounds
Experimental Endpoint: normalized growth

{"columns": ["Compound", "Recorded Measurement"],
 "data": [
  ["CCN(CC)CCNC(=O)c1cc(Br)c(N)cc1OC", 0.976],
  ["OCCN1C[C@@H](O)[C@@H](O)C(O)C1CO (some centres not stated)", 1.01],
  ["COc1cc2c(cc1OC)Cc1cc(OC)c(OC)cc1Cc1cc(OC)c(OC)cc1C2", 1.04],
  ["CC1(C)OC(=O)NC1=O", 1.01],
  ["CC(Oc1ccccc1)C(=O)N[C@@H]1C(=O)N2[C@@H]1SC(C)(C)[C@@H]2C(=O)O (some centres not stated)", 0.999],
  ["COc1cc2c(cc1OC)C(=O)OC2", 1],
  ["COCCc1ccc(OCC(O)CNC(C)C)cc1 (configuration not stated)", 0.971],
  ["ClC1=C(Cl)C2(Cl)C3C4C=CC(C4)C3C1(Cl)C2(Cl)Cl (configuration not stated)", 0.988],
  ["Cc1[nH]c(C)c(Cl)c(=O)c1Cl", 0.992],
  ["CN1CCC(=C2c3ccccc3CC(=O)c3sccc32)CC1", 0.992],
  ["COc1cc2c(cc1OC)[C@@H]1C(=O)c3ccc4c(c3O[C@@H]1CO2)C=CC(C)(C)O4", 1],
  ["CN1CCC(=C2c3ccccc3CCc3sccc32)CC1", 0.954]
]}

====

Reported values of normalized growth for individual entries
- Assay Notes: chemical genetic growth profiling, strain panel (AID 1159580);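 note: tested at 20 µM; growth read once vehicle control cultures reached saturation at 30 °C; 1 = growth at the plate median or of vehicle wells; lower values mean less growth of the strain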
- Condition Parameters: S. cerevisiae deletion strains, growth OD, locus YDR334W, strain swr1, stronger effect = lower value
The campaign covered roughly 5,500 compounds. About 2,000 (36%) were called active. Roughly 18% stayed inconclusive and do not appear here. This is one part of the list.

{"columns": ["Compound", "normalized growth"],
 "data": [
  ["CC(=O)OCC(=O)[C@@]1(O)CCC2C3CCC4=CC(=O)CC[C@]4(C)C3C(=O)C[C@@]21C (stereo not given in full)", 0.968],
  ["CCCCCCNC(=O)n1cc(F)c(=O)[nH]c1=O", 0.93],
  ["CC(=O)OCC(=O)[C@H]1CCC2C3CCC4=CC(=O)CC[C@]4(C)C3CC[C@@]21C (stereo not given in full)", 0.971],
  ["NCCSSCCN", 0.996],
  ["NC(=O)c1ccc[n+]([C@@H]2O[C@H](COP(=O)([O-])OP(=O)(O)OC[C@H]3O[C@@H](n4cnc5c(N)ncnc54)[C@H](O)[C@@H]3O)[C@@H](O)[C@H]2O)c1", 1.02]
]}

====

normalized growth values by entry
- Assay Notes: chemical genetic growth profiling, strain panel (AID 1159580);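 note: tested at 20 µM; growth read once vehicle control cultures reached saturation at 30 °C; 1 = growth at the plate median or of vehicle wells; lower values mean less growth of the strain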
- Condition Parameters: S. cerevisiae deletion strains, growth OD, locus YEL003W, strain gim4, stronger effect = lower value
Screen size: about 5,500 compounds; about 2,000 (36%) were called active. Roughly 18% stayed inconclusive and do not appear here. Some of the results follow.

{"columns": ["Molecule", "normalized growth"],
 "data": [
  ["CC(N)C(=O)OC(C)(C)Cc1ccc(Cl)cc1 (centres undefined)", 1.01],
  ["COP(=O)(OC)OC=C(Cl)Cl", 0.991],
  ["CC1=C(/C=C/C(C)=C/C=C/C(C)=C/C=C/C=C(C)/C=C/C=C(C)/C=C/C2=C(C)C(=O)C(O)CC2(C)C)C(C)(C)CC(O)C1=O (centres undefined)", 1.04],
  ["COc1cc(NC(C)CCCN)c2ncccc2c1 (centres undefined)", 1.01],
  ["CC1=C(/C=C/C(C)=C/C=C/C(C)=C/C=C/C=C(C)/C=C/C=C(C)/C=C/C2=C(C)C(=O)CCC2(C)C)C(C)(C)CCC1=O", 0.979],
  ["CC(=O)O[C@H]1[C@@H]2[C@@H](OC(=O)Cc3ccccc3)[C@@H](C)C[C@]2(OC(C)=O)C(=O)/C(C)=C/[C@H]2[C@H](CC[C@@]13CO3)C2(C)C", 0.981],
  ["CC1=C(/C=C/C(C)=C/C=C/C(C)=C/C=C/C=C(C)/C=C/C=C(C)/C=C/C(=O)[C@]2(C)C[C@@H](O)CC2(C)C)C(C)(C)C[C@H](O)C1", 0.997],
  ["CCCCCCCCCCCCCCCC(=O)OC/C=C(C)/C=C/C=C(C)/C=C/C1=C(C)CCCC1(C)C", 1.01],
  ["CN1CCCN=C1COC(=O)C(O)(c1ccccc1)C1CCCCC1 (centres undefined)", 0.997]
]}
